System: Influenza A H1N1\WSN\33
measurementNotes: microbe, parasite or virus in culture
Type: cell-based, Influenza A virus
runConditions: Influenza A virus, MDCK, 72 h, read-out: EC50 by PRA
observedProperty: EC50 (nM)
Report the figure in nM without appending any unit label.

{"compound": "Cc1onc(-c2ccccc2)c1C(=O)N1CCN(c2ccc([N+](=O)[O-])cc2Cl)CC1C (centres unmarked) [Compound 7]", "measurementTarget": "Influenza A H1N1\\WSN\\33", "EC50 (nM)": 800}
{"compound": "Cc1onc(-c2c(Cl)cccc2Cl)c1C(=O)N1CCN(c2ccc([N+](=O)[O-])cc2)CC1 [Compound 9]", "measurementTarget": "Influenza A H1N1\\WSN\\33", "EC50 (nM)": 12000}
{"compound": "Cc1onc(-c2ccccc2)c1C(=O)N1CCN(c2ccc([N+](=O)[O-])cc2Cl)CC1 [Compound 2]", "measurementTarget": "Influenza A H1N1\\WSN\\33", "EC50 (nM)": 60}

Any idea what EC50 came out for Cc1onc(-c2ccccc2Cl)c1C(=O)N1CCN(c2ccc([N+](=O)[O-])cc2Cl)CC1C (centres unmarked) [Compound 6] on Influenza A H1N1\WSN\33?
210

Provide the documented EC50 with Influenza A H1N1\WSN\33 as the system for Cc1onc(-c2ccccc2Cl)c1C(=O)N1CCN(c2c(Cl)cccc2[N+](=O)[O-])CC1 [Compound 10]
25000

====

Tested on: Influenza A H1N1\WSN\33
measurementNotes: microbe, parasite or virus in culture
Format: cell-based, Influenza A virus
This listing pairs compounds with measured Selective Index (SI).

{"compound": "Cc1onc(-c2c(Cl)cccc2Cl)c1C(=O)N1CCN(c2ccc([N+](=O)[O-])cc2)CC1", "reportedMeasurement": ">21"}

Fill in: Selective Index (SI) of Cc1onc(-c2ccccc2)c1C(=O)N1CCN(c2ccc([N+](=O)[O-])cc2Cl)CC1C (stereo not drawn) is ___
>313

What value of measured Selective Index (SI) is listed for `Cc1onc(-c2ccccc2Cl)c1C(=O)N1CCN(c2c(Cl)cccc2[N+](=O)[O-])CC1` ?
>10

Which Selective Index (SI) value belongs to Cc1onc(-c2ccccc2Cl)c1C(=O)N1CCN(c2ccc([N+](=O)[O-])cc2Cl)CC1C (stereo not drawn) ?
>1190

Reported Selective Index (SI), compound `Cc1onc(-c2ccc(N)cc2)c1C(=O)N1CCN(c2ccc([N+](=O)[O-])cc2Cl)CC1` : ____
>4464

So what's the measured Selective Index (SI) for this one? `Cc1onc(-c2ccccc2)c1C(=O)N1CCN(c2ccc([N+](=O)[O-])cc2Cl)CC1`
>4167

====

Measured CC50 accompanies every entry in the list below.
Tested on: Vero cells
measurementNotes: MTT cytotoxicity assay in Vero cells
Format: cell-based
runConditions: 24 hours incubation, concentrations tested 0 to 250 μM, read-out: TC50 in Vero cells

Some compounds with recorded CC50:
{"compound": "Cc1onc(-c2ccc(O)cc2)c1C(=O)N1CCN(c2ccc([N+](=O)[O-])cc2Cl)CC1 [Compound 1]", "CC50": "> 250 µM"}
{"compound": "Cc1onc(-c2ccccc2Cl)c1C(=O)N1CCN(c2ccc([N+](=O)[O-])cc2)CC1 [Compound 8]", "CC50": "> 250 µM"}
{"compound": "Cc1onc(-c2ccc(N=[N+]=[N-])cc2)c1C(=O)N1CCN(c2ccc([N+](=O)[O-])cc2Cl)CC1 [Compound 4]", "CC50": "> 250 µM"}

Name the reported CC50 value associated with the compound Cc1onc(-c2ccccc2Cl)c1C(=O)N1CCN(c2ccc([N+](=O)[O-])cc2Cl)CC1 [Compound 5]
> 250 µM
